# TGT: hSTING-WT (Homo sapiens (Human), UniProt Q86WV6, H232R)
# Sequence (Q86WV6 140-379 H232R): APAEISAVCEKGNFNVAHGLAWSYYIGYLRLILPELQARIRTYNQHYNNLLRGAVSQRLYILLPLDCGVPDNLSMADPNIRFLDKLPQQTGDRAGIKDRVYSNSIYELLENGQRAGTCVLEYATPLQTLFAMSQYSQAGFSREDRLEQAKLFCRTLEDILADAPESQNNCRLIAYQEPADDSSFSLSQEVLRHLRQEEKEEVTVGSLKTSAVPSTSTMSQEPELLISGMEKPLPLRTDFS
# ASSAY_DETAILS: Radiometric filtration binding competition assay, hSTING-WT
pIC50: −log10 of the molar value.

CPD_SMILES	pIC50
COc1c(Cl)ccc2c(=O)c3ccc(NC4CCC4)cc3n(CC(=O)O)c12	> 4.70
O=C(O)Cn1c2cc(-c3ccccc3)ccc2c(=O)c2ccc(Cl)c(Br)c21	4.00 to 4.70
O=C(O)Cn1c2ccccc2c(=O)c2ccc(Cl)c(-c3cccnc3)c21	< 3.52
C[C@@H](Oc1c(Cl)ccc2c(=O)c3ccccc3n(CC(=O)O)c12)c1ccccc1	< 3.52
